SYSTEM_NAME: T1, recombinant human ROR1 extracellular domain protein (human, UniProt Q01973 30-406)
T1 construct: also called Human/Cyno ROR1
EXPERIMENT_NOTES: biolayer interferometry, TCE immobilized
Text: This example describes biolayer interferometry experiments that were used to determine the binding affinities of bispecific TCEs and sequence optimized variants of the present disclosure.
ASSAY_METRIC: Kd (nM)
Give bare numbers, in nM.

Example cases with answers are listed next.
BINDER	UNIT_ANNOTATION	VALUE_MEASURED
82H02 VL1.03 (bispecific TCE of Table 29) (bispecific antibody, V domains shown, also called 82H02 v1.03) VH: EVQLLESGGGLVQPGGSLRLSCAASGFTFTSYAMSWVRQAPGKGLEWVSTISGSGGGTYYTDSVKGRFTISRDNSKNTLYLQMNSLRAEDTAVYYCAQGSSIFDYWGQGTLVTVSS VL: EIVLTQSPATLSLSPGERATLSCRASQSVSSYLAWYQQKPGQAPRLLIYDASNRATGIPARFSGSGSGTDFTLTISSLEPEDFAVYYCQQRSNWPPQTFGQGTRLEIK	nM	475
82H02 VL1.07 (high) (bispecific TCE of Table 29) (bispecific antibody, V domains shown, also called 82H02 v1.07) VH: EVQLLESGGGLVQPGGSLRLSCAASGFTFTSYAMSWVRQAPGKGLEWVSTISGSGGGTYYTDSVKGRFTISRDNSKNTLYLQMNSLRAEDTAVYYCAQGSSIFDYWGQGTLVTVSS VL: EIVLTQSPATLSLSPGERATLSCRASQSVSSYLAWYQQKPGQAPRLLIYDASNRATGIPARFSGSGSGTDFTLTISSLEPEDFAVYYCQQRSNWPPSTFGQGTRLEIK	nM	4.2

Kindly consider the entry below.
// query If you can, please state the reported Kd value of 69A02 (bispecific TCE of Table 29) (bispecific antibody, V domains shown) VH: QVTLKESGPTLVKPTQTLTLTCSFSGFSITTSGVSVGWIRQPPGKALEWLALIYWDDDKRYSPSLKSRLTITRDTSKNQVVLTMTNMDPVDTATYYCAHAPRYTPGGYFDYWGQGTLVTVSS VL: ETTLTQSPATLSVSPGETATLSCRASQSVSSNLAWYQQKPGQAPRLLIYGASTRATGIPATFSGSGSGTEFTLTISSLQSEDFAIYYCQQYKNWPPAFGGGTELEIK .
// result 3.5

Sourced from patent US20240343800A1
